Reference source for all entries: ChEMBL document CHEMBL5543084

- Test system: Acinetobacter baumannii
- assay name: Antibacterial activity against Acinetobacter baumannii ATCC 17978 assessed as inhibition of bacterial growth incubated for 24 hrs by broth dilution method
- Format: functional
readout: MIC (µg/mL)
Unit µg/mL implied. Number only.

Worked examples, 4 molecules total:
C=C(C)[C@@H]1CCC(C)=C[C@H]1c1c(OCC(=O)N[C@@H](CCCNC(=N)N)C(=O)N[C@@H](CCCNC(=N)N)C(=O)OC)cc(CCCCC)cc1OCC(=O)N[C@@H](CCCNC(=N)N)C(=O)N[C@@H](CCCNC(=N)N)C(=O)OC ... 25
C=C(C)[C@@H]1CCC(C)=C[C@H]1c1c(OCCCCN(C)CCCNC)cc(CCCCC)cc1OCCCCN(C)CCCNC ... 1.56
C=C(C)[C@@H]1CCC(C)=C[C@H]1c1c(OCCCCCN)cc(CCCCC)cc1OCCCCCN ... 6.25
C=C(C)[C@@H]1CCC(C)=C[C@H]1c1c(OCCCCN(C)CCCN(C)CCCNC)cc(CCCCC)cc1OCCCCN(C)CCCN(C)CCCNC ... 6.25

Now consider a different molecule.
Lookup: Param readout = MIC; param system = Acinetobacter baumannii; param query = C=C(C)[C@@H]1CCC(C)=C[C@H]1c1c(OCCCN)cc(CCCCC)cc1OCCCN ; response: value
Found: 6.25
